# maps each entry to its pIC50
Molecular target: recombinant human CYP11B2 (Homo sapiens, UniProt P19099)
Construct: made in house; host or cells: V79-4 cells (enzyme enriched microsomal fraction of cell lysates)
Assay: CYP11B2 enzyme assay, enzyme enriched microsomes from V79-4 cells, aldosterone by LC-MS
Type: biochemical
Conditions: IC50 ranges; run at Km of 11-deoxycorticosterone; read-out: hCYP11B2 IC50
pIC50: −log10 of the molar value.

COCCNc1ncncc1-c1nc2cc(F)c(F)cc2n1C1CC1 | 7.00 to 9.00

Q) For the molecule CC(F)(F)c1ncncc1-c1nc2cc(F)c(F)cc2n1C1CC1 , what pIC50 is on record?
A) 7.00 to 9.00

Q) Please report the recorded pIC50 for Cc1ncc(-c2nc3ccc(F)cc3n2C2CC2)cn1 .
A) 5.00 to 6.00

Q) Reported pIC50 for CCn1c(-c2cncnc2C(F)(F)F)nc2ccc(C#N)nc21 : what is it?
A) 6.00 to 7.00

Q) Request the reported pIC50 associated with CC(C)c1ncncc1-c1nc2ccc(C#N)cc2n1C1CC1
A) 7.00 to 9.00

====

Biological target: recombinant human CYP11B1 (Homo sapiens, UniProt P15538)
Construct: made in house; host or cells: V79-4 cells (enzyme enriched microsomal fraction of cell lysates)
Sequence (P15538 25-503): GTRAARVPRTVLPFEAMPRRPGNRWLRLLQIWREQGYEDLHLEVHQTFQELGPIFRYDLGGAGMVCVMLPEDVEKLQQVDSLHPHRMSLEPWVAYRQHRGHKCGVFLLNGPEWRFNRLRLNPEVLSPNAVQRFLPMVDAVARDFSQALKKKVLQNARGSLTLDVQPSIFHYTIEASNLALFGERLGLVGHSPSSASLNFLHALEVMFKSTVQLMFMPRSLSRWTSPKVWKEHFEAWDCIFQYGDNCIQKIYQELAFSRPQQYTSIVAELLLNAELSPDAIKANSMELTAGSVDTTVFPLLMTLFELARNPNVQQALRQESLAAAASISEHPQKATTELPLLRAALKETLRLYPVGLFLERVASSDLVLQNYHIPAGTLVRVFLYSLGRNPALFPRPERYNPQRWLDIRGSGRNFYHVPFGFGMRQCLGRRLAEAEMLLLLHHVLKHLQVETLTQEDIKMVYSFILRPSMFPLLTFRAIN
Assay: CYP11B1 enzyme assay, enzyme enriched microsomes from V79-4 cells, cortisol by LC-MS
Type: biochemical
Details: IC50 ranges; run at Km of 11-deoxycortisol; read-out: hCYP11B1 IC50
pIC50: −log10 of the molar value.
READOUT TYPE: pIC50

# count of solved cases: 5
CNc1ncncc1-c1nc2ccc(F)cc2n1C1CC1 | 6.00 to 7.00
FC(F)(F)c1ncncc1-c1nc2cc(Cl)cnc2n1C1CC1 | < 5.00
CC(F)(F)c1ncncc1-c1nc2cc(F)c(F)cc2n1C1CC1 | 5.00 to 6.00
CCn1c(-c2cncnc2C)nc2ccc(C#N)cc21 | 5.00 to 6.00
Cc1ncncc1-c1nc2ccc(C#N)cc2n1C1CC1 | 5.00 to 6.00

Q) Given the entry Fc1ccc2nc(-c3cncnc3Cl)n(C3CC3)c2c1 , what pIC50 was observed with recombinant human CYP11B1 (Homo sapiens, UniProt P15538)?
A) 5.00 to 6.00

Q) Notebook entry, recombinant human CYP11B1 (Homo sapiens, UniProt P15538) assay: pIC50 of N#Cc1ncncc1-c1nc2ccc(F)cc2n1C1CC1 = ?
A) 5.00 to 6.00

Q) Test system recombinant human CYP11B1 (Homo sapiens, UniProt P15538); read-out pIC50; what value for CCc1ncncc1-c1nc2ccc(F)cc2n1C1CC1 ?
A) 5.00 to 6.00

Q) Form entry - test system: recombinant human CYP11B1 (Homo sapiens, UniProt P15538); read-out: pIC50; molecule: Cc1ncnc(C)c1-c1nc2ccc(F)cc2n1C1CC1
A) < 5.00

Q) Form: Entry = Cc1ncncc1-c1nc2cc(F)c(F)cc2n1C1CC1 | System = recombinant human CYP11B1 (Homo sapiens, UniProt P15538) | pIC50 = ____
A) 5.00 to 6.00

====

Entries annotated with measured IC50
Target: recombinant human CYP11B2 (Homo sapiens)
Construct: made in house; host or cells: V79-4 cells (enzyme enriched microsomal fraction of cell lysates)
Sequence (P19099 25-503): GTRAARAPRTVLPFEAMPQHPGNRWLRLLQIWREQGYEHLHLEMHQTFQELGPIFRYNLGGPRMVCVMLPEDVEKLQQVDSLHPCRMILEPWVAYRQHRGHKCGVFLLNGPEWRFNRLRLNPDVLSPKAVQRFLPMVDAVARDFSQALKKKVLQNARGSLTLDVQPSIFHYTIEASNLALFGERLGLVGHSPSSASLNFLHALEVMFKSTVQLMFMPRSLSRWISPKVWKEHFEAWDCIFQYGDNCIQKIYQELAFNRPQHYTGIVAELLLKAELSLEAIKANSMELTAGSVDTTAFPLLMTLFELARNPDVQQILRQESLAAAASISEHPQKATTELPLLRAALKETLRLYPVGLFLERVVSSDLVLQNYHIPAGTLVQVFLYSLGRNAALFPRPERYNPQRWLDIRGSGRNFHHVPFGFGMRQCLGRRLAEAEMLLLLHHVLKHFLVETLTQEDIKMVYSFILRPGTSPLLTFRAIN
Assay: CYP11B2 enzyme assay, enzyme enriched microsomes from V79-4 cells, aldosterone by LC-MS
Format: biochemical
Conditions: IC50 ranges; run at Km of 11-deoxycorticosterone; read-out: hCYP11B2 IC50

Q) Recorded IC50 of CCCc1ncncc1-c1nc2ccc(C#N)cc2n1C1CC1 , please.
A) 1 to 100 nM

Q) // returns reported IC50 for input COc1ncncc1-c1nc2ccc(F)cc2n1C1CC1
A) 100 to 1000 nM

Q) GET /values?readout=IC50&item= CC(=O)NCCc1ncncc1-c1nc2cc(F)c(F)cc2n1C1CC1
A) 1000 to 10000 nM

Q) GET /values?readout=IC50&item= CCc1ncncc1-c1nc2ccc(F)cc2n1C1CC1
A) 1 to 100 nM

Q) Bench note: what IC50 did Fc1ccc2nc(-c3cncnc3)n(C3CC3)c2c1 show?
A) 1 to 100 nM

Q) Item CC(=O)NCc1ncncc1-c1nc2ccc(F)cc2n1C1CC1 has what recorded IC50?
A) 1000 to 10000 nM

Q) So what's the measured IC50 for this one? COc1ccc2nc(-c3cncnc3C)n(C3CC3)c2n1
A) 100 to 1000 nM

Q) Bench note: what IC50 did FC(F)(F)c1ncncc1-c1nc2ccc(Cl)nc2n1C1CC1 show?
A) 1 to 100 nM

Q) Which value of IC50 has been reported for FC(F)(F)Oc1ccc2nc(-c3cncnc3)n(C3CC3)c2c1 in the records?
A) 100 to 1000 nM

Q) Give the measured IC50 of Fc1cc2nc(-c3cncnc3)n(C3CC3)c2cc1F .
A) 1 to 100 nM

Q) What value of IC50 has been recorded for this entry: Fc1cc2nc(-c3cncnc3C(F)F)n(C3CC3)c2cc1F
A) 1 to 100 nM

Q) Which IC50 value is on record for Fc1cc2nc(-c3cncnc3NCCC(F)(F)F)n(C3CC3)c2cc1F ?
A) 1 to 100 nM

Q) // returns reported IC50 for input CC(C)c1ncncc1-c1nc2ccc(F)cc2n1C1CC1
A) 1 to 100 nM

Q) # input molecule: Cc1ncncc1-c1nc2cc(F)c(F)cc2n1C1CC1 ; wanted: its IC50
A) 1 to 100 nM

Q) Given the molecule Cc1ncncc1-c1nc2cnc(Cl)cc2n1C1CC1 , what is its reported IC50?
A) 100 to 1000 nM

Q) Form field: reported IC50 of CC(F)(F)c1ncncc1-c1nc2ccc(C#N)cc2n1C1CC1
A) 1 to 100 nM

====

Molecular target: recombinant human CYP11B1 (Homo sapiens, UniProt P15538)
Construct: made in house; host or cells: V79-4 cells (enzyme enriched microsomal fraction of cell lysates)
Sequence (P15538 25-503): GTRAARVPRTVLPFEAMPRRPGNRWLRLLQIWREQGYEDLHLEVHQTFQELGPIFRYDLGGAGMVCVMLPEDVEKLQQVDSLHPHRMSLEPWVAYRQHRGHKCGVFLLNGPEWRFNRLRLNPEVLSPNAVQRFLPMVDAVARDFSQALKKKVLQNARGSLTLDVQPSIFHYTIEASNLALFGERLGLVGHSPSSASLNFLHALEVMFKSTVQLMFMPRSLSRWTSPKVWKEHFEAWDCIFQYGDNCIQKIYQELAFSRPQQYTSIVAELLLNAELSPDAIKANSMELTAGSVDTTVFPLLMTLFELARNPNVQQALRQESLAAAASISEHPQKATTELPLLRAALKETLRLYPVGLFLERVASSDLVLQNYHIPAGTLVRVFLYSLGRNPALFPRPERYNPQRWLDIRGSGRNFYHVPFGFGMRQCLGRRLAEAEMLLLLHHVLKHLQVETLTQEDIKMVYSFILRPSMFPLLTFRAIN
Assay: CYP11B1 enzyme assay, enzyme enriched microsomes from V79-4 cells, cortisol by LC-MS
Assay type: biochemical
Conditions: IC50 ranges; run at Km of 11-deoxycortisol; read-out: hCYP11B1 IC50
READOUT TYPE: IC50

See these solved cases before continuing.
CC(C)(O)c1ncncc1-c1nc2ccc(C#N)cc2n1C1CC1 | > 10 µM
Fc1cc2nc(-c3cncnc3C(F)(F)F)n(C3CC3)c2cc1F | 1 to 10 µM
COc1ccc2nc(-c3cncnc3)n(C3CC3)c2c1 | > 10 µM
Fc1cc2nc(-c3cncnc3C3CC3)n(C3CC3)c2cc1F | > 10 µM
N#Cc1ncncc1-c1nc2cc(F)c(F)cc2n1C1CC1 | 1 to 10 µM

Q) For the record COCCNc1ncncc1-c1nc2cc(F)c(F)cc2n1C1CC1 , what value of IC50 is listed for recombinant human CYP11B1 (Homo sapiens, UniProt P15538)?
A) 1 to 10 µM
